From: paper PMC5913603

Assay details: Chemical stability in aqueous solutions, degradation followed by HPLC
Format: physicochemical
Test conditions: buffer, pH 6.7, Half-life (t1/2, h) ACN:Water, 1:1
Readout name: half-life at 200 μg ml^–1 (days)
// note: answer is a bare numeric in days

Give the value of half-life at 200 μg ml^–1 reported for the following: CC1=C[C@H](O/C=C2/C(=O)O[C@@H]3c4ccccc4C[C@H]23)OC1=O [(+)-GR24]
141
